- System: PD-1
- assay procedure: PD-1 Taqman
- Type: cell-based, human
- experimental conditions: Donor BB008; No Pep 6.4
We label by threshold. Values of ΔCT (BB008) strictly beneath 6 are t. Values of 6 and up are f.

Record MSIYVYALPLKMLNI [1DR, human CMV pp65-derived class II peptide, Human (DRB1)] : is its ΔCT (BB008) strictly below 6?
t

Hello, I'm reviewing records and need to know if ΔCT (BB008) of DVYYTSAFVFPTKDV [4DR] is below 6. Could you check?
t

Find out if reported ΔCT (BB008) for HVRVSQPSLILVSQY [3DR, human CMV pp65-derived class II peptide, Human (DRB1)] is less than 6
t

Field: below-cutoff. Rule: recorded ΔCT (BB008) strictly less than 6. Subject: MISVLGPISGHVLKA [2DR, human CMV pp65-derived class II peptide, Human (DRB1)]
t

Lab log: compare recorded ΔCT (BB008) with 6; is it strictly lower for SGKLFMHVTLGSDVE [5DR, human CMV pp65-derived class II peptide, Human (DRB1)] ?
f

* * *

- Test system: PD-1
- assay procedure: PD-1 Taqman
- Format: cell-based, human
- experimental conditions: Donor BB011; relative to No Pep
quantity kind: ΔΔCT(BB011)
The reply should be a number, written without any unit.

Note ΔΔCT(BB011) for the sequence shown: MSIYVYALPLKMLNI [1DR, human CMV pp65-derived class II peptide, Human (DRB1)]
0.1

Identify measured ΔΔCT(BB011) corresponding to SGKLFMHVTLGSDVE [5DR, human CMV pp65-derived class II peptide, Human (DRB1)]
0.4

Supply measured ΔΔCT(BB011) of AGILARNLVPMVATV [6DR, human CMV pp65-derived class II peptide, Human (DRB1)] in your reply.
0.275

Please report ΔΔCT(BB011) for the following sequence: DVYYTSAFVFPTKDV [4DR]
−0.225

Please supply the value of reported ΔΔCT(BB011) for the item MISVLGPISGHVLKA [2DR, human CMV pp65-derived class II peptide, Human (DRB1)]
−0.63

// fetch ΔΔCT(BB011) given entry HVRVSQPSLILVSQY [3DR, human CMV pp65-derived class II peptide, Human (DRB1)]
0.51

* * *

- System: PD-1
- assay procedure: PD-1 Taqman
- Format: cell-based, human
- experimental conditions: Donor BB011; No Pep 3.57
quantity kind: ΔCT (BB011)
Form: value (number only, do not type unit).

For the sequence SGKLFMHVTLGSDVE [5DR, human CMV pp65-derived class II peptide, Human (DRB1)] , give its reported ΔCT (BB011).
3.97

Return ΔCT (BB011) for the following sequence: MSIYVYALPLKMLNI [1DR, human CMV pp65-derived class II peptide, Human (DRB1)]
3.67

Given the sequence AGILARNLVPMVATV [6DR, human CMV pp65-derived class II peptide, Human (DRB1)] , write its reported ΔCT (BB011).
3.845

Identify measured ΔCT (BB011) associated with DVYYTSAFVFPTKDV [4DR]
3.345

Tell me measured ΔCT (BB011) for HVRVSQPSLILVSQY [3DR, human CMV pp65-derived class II peptide, Human (DRB1)] please.
4.08

Provide only the value of recorded ΔCT (BB011) for MISVLGPISGHVLKA [2DR, human CMV pp65-derived class II peptide, Human (DRB1)]
2.94

Where do the numbers come from? From patent US20100111992A1.
